Numbers sourced from patent US9499554B2.

- Assay remarks: in vivo
- Condition summary: female, Balb/c, mouse, po, 100 mg/kg
Outcome measure: concentration at 3 hr (ng/mL)
One number for each entry, in ng/mL.

Any idea what its concentration at 3 hr is? The compound is Nc1ncnc2c([C@@H]3N[C@H](CO)[C@@H](O)[C@H]3O)c[nH]c12
89.7

###

- Assay remarks: in vivo
- Condition summary: female, Balb/c, mouse, po, 100 mg/kg
Outcome measure: concentration at 1 hr (ng/mL)
Numbers only, in ng/mL.

Any idea what its concentration at 1 hr is? The molecule is Nc1ncnc2c([C@@H]3N[C@H](CO)[C@@H](O)[C@H]3O)c[nH]c12
342

###

- Assay remarks: in vivo
- Condition summary: female, Balb/c, mouse, po, 100 mg/kg
Outcome measure: concentration at 0.17 hr
Please report the result as a number followed by the unit.

Any idea what its concentration at 0.17 hr is? The molecule is Nc1ncnc2c([C@@H]3N[C@H](CO)[C@@H](O)[C@H]3O)c[nH]c12
0.607 µg/mL

###

- Assay remarks: in vivo
- Condition summary: female, Balb/c, mouse, po, 100 mg/kg
Outcome measure: concentration at 0.5 hr (ng/mL)
Answers are plain numbers, in ng/mL.

Any idea what its concentration at 0.5 hr is? The compound is Nc1ncnc2c([C@@H]3N[C@H](CO)[C@@H](O)[C@H]3O)c[nH]c12 [compound 1]
910
